Assay: Apparent renal clearance in human at 150 mg, po co-treated with ritonavir 200 mg tid for 1 day, 300 mg bid for next 2 days using 0-48 hrs urine sample
Assay type: ADME, organism-based
Settings: read-out: CL_renal
result.type: CL renal (mL/min)
// note: answer is a bare numeric in mL/min

Data point: CC(NC(C)(C)C)C(=O)c1cccc(Cl)c1 (racemic) [BUPROPION] ; CL renal = 20

---

Test: clinical
Conditions: human, plasma, po
result.type: Cmax (ng/mL)
Numbers only; they are read as ng/mL.

Cmax measured on CC(NC(C)(C)C)C(=O)c1cccc(Cl)c1 (racemic) = 267
